EXPERIMENTAL SYSTEM: T1, human IL-33 (R&D Systems, #3625-IL-010/CF) (human, UniProt O95760 112-270)
T1 construct: Commercial recombinant protein; also called hIL-33; interleukin-33
T1 sequence (looked up): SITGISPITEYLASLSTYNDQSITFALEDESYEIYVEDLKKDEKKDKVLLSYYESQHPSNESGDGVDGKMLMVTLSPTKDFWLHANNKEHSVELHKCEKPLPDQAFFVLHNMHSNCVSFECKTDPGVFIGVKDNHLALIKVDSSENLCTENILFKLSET
MEASUREMENT PROTOCOL: SPR 25C pH7.4, mAb captured
Method: Equilibrium dissociation constants (KD values) for IL-33 binding to purified anti-IL-33 monoclonal antibodies were determined using a real-time surface plasmon resonance biosensor using a Biacore 4000 instrument. […] Association of either hIL-33 or MfIL-33-6His to the captured monoclonal antibody was monitored for 4 minutes and their dissociation in ABS-ET running buffer was monitored for 10 minutes. […]
List of t½ values.
In your response, the unit should come after the numeric value.

# annotated cases, reported t½ shown
- BINDER: "H4H9671P (antibody, human IgG4, V domains shown, Human IgG4 Fc (H4H)) VH: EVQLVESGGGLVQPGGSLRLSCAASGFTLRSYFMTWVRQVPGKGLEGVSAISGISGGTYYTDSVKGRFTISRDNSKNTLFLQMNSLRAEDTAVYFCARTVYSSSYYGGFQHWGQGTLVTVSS VL: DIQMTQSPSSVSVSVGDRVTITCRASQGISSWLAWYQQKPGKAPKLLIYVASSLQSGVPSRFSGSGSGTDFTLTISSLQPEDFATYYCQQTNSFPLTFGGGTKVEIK"
  t½: "33 min"
- BINDER: "H4H9670P (antibody, V domains shown, Human IgG4 Fc (H4H)) VH: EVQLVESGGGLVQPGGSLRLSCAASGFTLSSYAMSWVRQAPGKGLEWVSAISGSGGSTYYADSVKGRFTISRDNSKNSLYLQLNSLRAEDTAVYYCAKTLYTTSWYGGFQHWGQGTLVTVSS VL: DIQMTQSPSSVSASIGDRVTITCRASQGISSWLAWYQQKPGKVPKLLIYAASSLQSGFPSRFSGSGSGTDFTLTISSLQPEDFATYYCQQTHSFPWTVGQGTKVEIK"
  t½: "40 min"

Pending binder:
Req: Query: t½; subject: H4H9659P (antibody, human IgG4, V domains shown, Human IgG4 Fc (H4H)) VH: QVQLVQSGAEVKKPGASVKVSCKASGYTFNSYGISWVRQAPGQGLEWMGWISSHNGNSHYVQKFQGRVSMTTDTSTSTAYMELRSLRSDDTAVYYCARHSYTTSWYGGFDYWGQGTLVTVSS VL: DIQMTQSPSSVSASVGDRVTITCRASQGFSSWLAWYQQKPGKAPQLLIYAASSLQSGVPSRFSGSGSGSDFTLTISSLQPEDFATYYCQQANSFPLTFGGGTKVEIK
Resp: 67 min
